Kd values, listed per item
system.tested: human neural precursor cell expressed developmentally down-regulated protein 4-like WW3* domain (hNedd4L-WW3*) (human, UniProt Q96PU5 497-530)
Sequence (Q96PU5 497-530): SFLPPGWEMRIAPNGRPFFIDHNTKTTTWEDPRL
method: ITC
condition.notes: both partners purified
metric: Kd

>>> result("MDPPRTPPPSYSEVL (source: synthetic peptide (Fmoc solid phase, C18 HPLC purified)) [U24-6A(1-15), 15-residue peptide of the N-terminal region of U24 from HHV-6A]")
"8.5 µM"
>>> result("MDRPRTPPPSYSEVL (source: synthetic peptide (Fmoc solid phase, C18 HPLC purified)) [U24-6B(1-15), 15-residue peptide of the N-terminal region of U24 from HHV-6B]")
"8.9 µM"
